Entries and their Porcine Ventricle IC25
Target: Porcine Ventricle myofibrils (left ventricle of Yucatan minipigs) (Sus scrofa, UniProt P79293)
Construct: Myofibrils from porcine cardiac muscle was isolated from the left ventricle of Yucatan minipigs; tissue Exemplar Genetics; host or cells: left ventricle of Yucatan minipigs
Sequence (P79293 whole entry): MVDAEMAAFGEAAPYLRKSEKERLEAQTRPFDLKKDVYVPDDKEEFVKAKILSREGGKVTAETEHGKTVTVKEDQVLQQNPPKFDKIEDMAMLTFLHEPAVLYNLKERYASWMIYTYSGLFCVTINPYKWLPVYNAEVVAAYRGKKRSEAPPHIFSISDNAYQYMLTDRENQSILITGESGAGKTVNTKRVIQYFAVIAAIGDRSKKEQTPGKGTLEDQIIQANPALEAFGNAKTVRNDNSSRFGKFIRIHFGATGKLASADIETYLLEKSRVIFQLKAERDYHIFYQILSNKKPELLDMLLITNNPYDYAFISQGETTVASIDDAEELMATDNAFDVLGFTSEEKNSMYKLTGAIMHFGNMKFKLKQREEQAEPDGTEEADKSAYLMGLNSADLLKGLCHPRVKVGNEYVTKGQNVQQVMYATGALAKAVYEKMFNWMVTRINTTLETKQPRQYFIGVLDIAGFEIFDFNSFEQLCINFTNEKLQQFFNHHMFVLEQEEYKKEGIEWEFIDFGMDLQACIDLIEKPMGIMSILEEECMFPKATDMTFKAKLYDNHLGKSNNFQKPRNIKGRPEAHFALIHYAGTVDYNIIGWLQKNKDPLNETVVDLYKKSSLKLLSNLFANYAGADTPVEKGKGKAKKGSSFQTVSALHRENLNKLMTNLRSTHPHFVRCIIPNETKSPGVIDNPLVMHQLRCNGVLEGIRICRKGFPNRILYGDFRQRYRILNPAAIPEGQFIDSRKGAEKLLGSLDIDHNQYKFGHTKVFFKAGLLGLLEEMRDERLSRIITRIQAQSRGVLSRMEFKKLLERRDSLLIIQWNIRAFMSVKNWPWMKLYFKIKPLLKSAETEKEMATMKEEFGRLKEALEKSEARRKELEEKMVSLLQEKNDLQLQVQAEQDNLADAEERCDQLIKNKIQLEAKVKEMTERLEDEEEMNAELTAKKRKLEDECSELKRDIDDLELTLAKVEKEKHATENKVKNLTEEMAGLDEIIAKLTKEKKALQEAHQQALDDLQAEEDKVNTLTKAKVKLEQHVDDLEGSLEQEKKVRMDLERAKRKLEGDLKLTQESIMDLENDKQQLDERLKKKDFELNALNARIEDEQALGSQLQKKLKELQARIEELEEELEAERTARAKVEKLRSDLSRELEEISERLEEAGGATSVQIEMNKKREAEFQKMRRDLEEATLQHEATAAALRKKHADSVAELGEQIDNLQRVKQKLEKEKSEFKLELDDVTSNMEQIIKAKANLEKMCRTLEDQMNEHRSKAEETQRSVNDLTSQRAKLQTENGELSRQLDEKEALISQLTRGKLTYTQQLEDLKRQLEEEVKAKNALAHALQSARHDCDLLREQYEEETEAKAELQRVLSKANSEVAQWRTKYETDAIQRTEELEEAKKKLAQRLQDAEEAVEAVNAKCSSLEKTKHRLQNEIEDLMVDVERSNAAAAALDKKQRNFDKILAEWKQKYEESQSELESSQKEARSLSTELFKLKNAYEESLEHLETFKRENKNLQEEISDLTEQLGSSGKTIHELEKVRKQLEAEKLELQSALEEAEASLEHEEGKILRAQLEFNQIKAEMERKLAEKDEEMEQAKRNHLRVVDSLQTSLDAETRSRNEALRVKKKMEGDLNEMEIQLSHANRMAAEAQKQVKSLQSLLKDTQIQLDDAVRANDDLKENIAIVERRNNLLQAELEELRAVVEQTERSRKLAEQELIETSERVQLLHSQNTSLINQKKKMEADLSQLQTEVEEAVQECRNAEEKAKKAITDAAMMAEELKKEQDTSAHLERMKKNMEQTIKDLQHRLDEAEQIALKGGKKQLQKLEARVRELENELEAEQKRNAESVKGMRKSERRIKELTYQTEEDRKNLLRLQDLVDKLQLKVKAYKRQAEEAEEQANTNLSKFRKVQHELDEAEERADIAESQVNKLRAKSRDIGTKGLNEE
Experiment: Myofibril ATPase assay (PK/LDH NADH-coupled), ventricle myofibrils
Format: biochemical
Settings: Table 8
# value in µM; strip the unit string

Worked cases, answers included:
molecule="N#Cc1cnc2c(c1)OC[C@H]2NC(=O)CN1C(=O)Nc2cccc(C#N)c2C12CC2 [Compound B310]" unit_of_measure=µM recorded_measurement=0.37
molecule="CC(C)C[C@@H](C(=O)N[C@H](C)c1ccc(F)cc1F)N1Cc2cc(F)ccc2NC1=O [Compound B66]" unit_of_measure=µM recorded_measurement=100
molecule="C[C@H](NC(=O)[C@H](C)N1Cc2c(ccc(F)c2F)NC1=O)c1ccc(F)cc1F [Compound B237]" unit_of_measure=µM recorded_measurement=8.122

Task: I'd like to know its Porcine Ventricle IC25. The molecule in question is C[C@H]1c2ccccc2NC(=O)N1CC(=O)N[C@@H](CO)c1ccc(F)cc1F [Compound B201]
Result: 100

* * *

System: Rabbit Skeletal myofibrils (rabbit psoas muscle)
Experiment: Myofibril ATPase assay (PK/LDH NADH-coupled), skeletal myofibrils
Type: biochemical
Settings: Table 8
Entries and their Rabbit Psoas IC25
# value in nM; strip the unit string

query_smiles=C[C@H](NC(=O)CN1Cc2c(ccc(F)c2F)NC1=O)c1ccc(F)cc1F study_system="Rabbit Skeletal myofibrils (rabbit psoas muscle)" recorded_measurement=11.6
query_smiles=C[C@@H](NC(=O)CN1Cc2c(F)cc(F)cc2NC1=O)c1ccc(C#N)cc1F study_system="Rabbit Skeletal myofibrils (rabbit psoas muscle)" recorded_measurement=745.5
query_smiles=C[C@@H](NC(=O)[C@H](C)N1Cc2cc(F)ccc2NC1=O)c1ccc(F)cc1F study_system="Rabbit Skeletal myofibrils (rabbit psoas muscle)" recorded_measurement=7191
query_smiles=C[C@H](NC(=O)CN1Cc2c(ccc(F)c2F)NC1=O)c1ccc(C#N)cn1 study_system="Rabbit Skeletal myofibrils (rabbit psoas muscle)" recorded_measurement=64.5
query_smiles=Cc1cc([C@@H](C)NC(=O)CN2Cc3c(ccc(F)c3F)NC2=O)ncc1F study_system="Rabbit Skeletal myofibrils (rabbit psoas muscle)" recorded_measurement=58620
query_smiles=C[C@H](C(=O)N[C@H](C)c1ccc(F)cc1F)N1Cc2cc(F)ccc2NC1=O study_system="Rabbit Skeletal myofibrils (rabbit psoas muscle)" recorded_measurement=882.5

Task: Give the reported Rabbit Psoas IC25 for O=C(CN1Cc2cc(F)ccc2NC1=O)N[C@H](CO)c1ccc(F)cc1F (system: Rabbit Skeletal myofibrils (rabbit psoas muscle)).
Result: 67.8

Task: Give the reported Rabbit Psoas IC25 for O=C(CN1Cc2c(ccc(F)c2F)NC1=O)N[C@@H]1CS(=O)(=O)c2cc(F)cc(F)c21 (system: Rabbit Skeletal myofibrils (rabbit psoas muscle)).
Result: 100000

* * *

Entries and their Rabbit Psoas IC25
Test system: Rabbit Skeletal myofibrils (rabbit psoas muscle)
Assay: Myofibril ATPase assay (PK/LDH NADH-coupled), skeletal myofibrils
Type: biochemical
Conditions: Table 8
# value in nM; strip the unit string

Task: I'd like to know its Rabbit Psoas IC25. The compound in question is C[C@H](NC(=O)CN1C(=O)Nc2ccc(F)c(F)c2C12CC2)c1cnc(C#N)cn1 [Compound B315]
Result: 20

Task: I'd like to know its Rabbit Psoas IC25. The compound in question is C[C@@H](NC(=O)CN1C(=O)Nc2ccc(F)cc2C12CC2)c1ccc(C#N)nn1 [Compound B334]
Result: 1020

Task: I'd like to know its Rabbit Psoas IC25. The compound in question is C[C@H](NC(=O)CN1Cc2cc(F)cc(F)c2NC1=O)c1ccc(C#N)cc1F [Compound B29]
Result: 124.5

Task: I'd like to know its Rabbit Psoas IC25. The compound in question is C[C@@H](NC(=O)CN1Cc2cc(F)ccc2NC1=O)c1ccc(C#N)cc1 [Compound B203]
Result: 14190

* * *

System: Rabbit Skeletal myofibrils (rabbit psoas muscle)
Test: Myofibril ATPase assay (PK/LDH NADH-coupled), skeletal myofibrils
Format: biochemical
Conditions: Table 8
Entries and their Rabbit Psoas IC25
# value in µM; strip the unit string

Worked cases, answers included:
compound="C[C@@H](C(=O)N[C@H](CO)c1ccc(F)cc1F)N1Cc2c(Cl)cccc2NC1=O [Compound B211]" measured_endpoint="Rabbit Psoas IC25" unit_of_measure=µM recorded_measurement=100
compound="CC(C(=O)N[C@@H](C)c1ccc(F)cc1F)N1Cc2ccccc2NC1=O (stereo partly shown) [Compound B243]" measured_endpoint="Rabbit Psoas IC25" unit_of_measure=µM recorded_measurement=10.96
compound="CC(C)C[C@@H](C(=O)N[C@@H](C)c1ncc(F)cc1F)N1Cc2c(ccc(F)c2F)NC1=O [Compound B50]" measured_endpoint="Rabbit Psoas IC25" unit_of_measure=µM recorded_measurement=100

Now consider the entry below.
Task: I'd like to know its Rabbit Psoas IC25. The compound in question is N#Cc1cc(F)c2c(c1)OC[C@@H]2NC(=O)CN1Cc2c(ccc(F)c2C#N)NC1=O [Compound B118]
Result: 0.0136

* * *

Tested on: Rabbit Skeletal myofibrils (rabbit psoas muscle)
Assay: Myofibril ATPase assay (PK/LDH NADH-coupled), skeletal myofibrils
Format: biochemical
Conditions: Table 8
Entries and their Rabbit Psoas IC25
Don't forget the unit after the number, please.

Worked cases, answers included:
compound="COc1cccnc1[C@H](C)NC(=O)CN1Cc2cc(F)ccc2NC1=O [Compound B187]" recorded_measurement="100 µM"
compound="C[C@@H](NC(=O)CN1Cc2c(ccc(F)c2F)NC1=O)c1nnc(-c2ccccc2F)s1 [Compound B95]" recorded_measurement="100 µM"
compound="N#Cc1ccc2c(c1)C1(CC1)N(CC(=O)N[C@@H]1COc3cc(F)cc(F)c31)C(=O)N2 [Compound B121]" recorded_measurement="0.0677 µM"
compound="Cc1nc(C#N)cnc1[C@@H](C)NC(=O)CN1C(=O)Nc2ccc(F)cc2C12CC2 [Compound B330]" recorded_measurement="0.05 µM"
compound="C[C@@H](NC(=O)CN1Cc2c(ccc(F)c2F)NC1=O)c1ncc(F)cc1F [Compound B190]" recorded_measurement="9.504 µM"
compound="C[C@@H](NC(=O)CN1Cc2c(ccc(F)c2F)NC1=O)c1cnc(C#N)cn1 [Compound B91]" recorded_measurement="0.3913 µM"

Task: Give the reported Rabbit Psoas IC25 for C[C@H](C(=O)N[C@H](CO)c1ncc(F)cc1F)N1Cc2c(Cl)cccc2NC1=O [Compound B168] (system: Rabbit Skeletal myofibrils (rabbit psoas muscle)).
Result: 100 µM

Task: Give the reported Rabbit Psoas IC25 for C[C@H](NC(=O)[C@@H](C)N1Cc2cc(F)ccc2NC1=O)c1ccc(F)cc1F [Compound B241] (system: Rabbit Skeletal myofibrils (rabbit psoas muscle)).
Result: 0.034 µM

* * *

Tested on: Rabbit Skeletal myofibrils (rabbit psoas muscle)
Assay: Myofibril ATPase assay (PK/LDH NADH-coupled), skeletal myofibrils
Type: biochemical
Conditions: Table 7
Assign Criterion met to entries whose Rabbit Psoas IC25 meets or exceeds 2 µM; assign Criterion not met to the rest.

compound="COc1ccc2c(n1)CN([C@@H](C)C(=O)N[C@@H](C)c1ccc(F)cc1F)C(=O)N2 [Compound N107]" class_assignment="Criterion met"
compound="C[C@H](NC(=O)CN1Cc2c(ccnc2OCC(F)F)NC1=O)c1ccc(F)cc1F [Compound N122]" class_assignment="Criterion not met"

Task: API: above_or_equal(metric=Rabbit Psoas IC25, cutoff=2 µM) for item C[C@H](NC(=O)CN1Cc2nc(Br)ccc2NC1=O)c1ccc(F)cc1F [Compound N103]
Result: Criterion not met

Task: API: above_or_equal(metric=Rabbit Psoas IC25, cutoff=2 µM) for item CC(NC(=O)CN1Cc2c(ccnc2C(N)=O)NC1=O)c1ncc(F)cc1F (stereo not drawn) [Compound N65]
Result: Criterion met

Task: API: above_or_equal(metric=Rabbit Psoas IC25, cutoff=2 µM) for item O=C(CN1Cc2cnccc2NC1=O)N[C@@H]1COc2cc(F)cc(F)c21 [Compound N10]
Result: Criterion not met

Task: API: above_or_equal(metric=Rabbit Psoas IC25, cutoff=2 µM) for item O=C(CN1Cc2cnccc2NC1=O)N[C@H]1CCCc2cc(F)cc(F)c21 [Compound N130]
Result: Criterion not met

Task: API: above_or_equal(metric=Rabbit Psoas IC25, cutoff=2 µM) for item O=C(CN1Cc2c(ccnc2C(F)(F)F)NC1=O)N[C@@H]1COc2cc(F)cc(F)c21 [Compound N18]
Result: Criterion not met

Task: API: above_or_equal(metric=Rabbit Psoas IC25, cutoff=2 µM) for item O=C(CN1Cc2c(ccnc2C(F)(F)F)NC1=O)N[C@H]1COc2cc(F)cc(F)c21 [Compound N19]
Result: Criterion met

Task: API: above_or_equal(metric=Rabbit Psoas IC25, cutoff=2 µM) for item N#Cc1ccc([C@H](CO)NC(=O)CN2C(=O)Nc3cccnc3C23CC3)c(F)c1 [Compound N37]
Result: Criterion not met

Task: API: above_or_equal(metric=Rabbit Psoas IC25, cutoff=2 µM) for item C[C@H](NC(=O)CN1C(=O)Nc2ccncc2[C@@H]1C)c1ccc(F)cc1F [Compound N86]
Result: Criterion met

Task: API: above_or_equal(metric=Rabbit Psoas IC25, cutoff=2 µM) for item C[C@H](NC(=O)CN1C(=O)Nc2ccc(C#N)nc2C12CC2)c1ncc(C#N)cc1F [Compound N4]
Result: Criterion not met

Task: API: above_or_equal(metric=Rabbit Psoas IC25, cutoff=2 µM) for item Cc1ncc2c(n1)CN(CC(=O)N[C@@H](C)c1ccc(F)cc1F)C(=O)N2 [Compound N91]
Result: Criterion met
